All figures here come from ChEMBL document CHEMBL2069212.

Overview of recorded pEC50 for various compounds
Biological target: Melanocortin receptor 4 (Homo sapiens)
Sequence (P32245 whole entry): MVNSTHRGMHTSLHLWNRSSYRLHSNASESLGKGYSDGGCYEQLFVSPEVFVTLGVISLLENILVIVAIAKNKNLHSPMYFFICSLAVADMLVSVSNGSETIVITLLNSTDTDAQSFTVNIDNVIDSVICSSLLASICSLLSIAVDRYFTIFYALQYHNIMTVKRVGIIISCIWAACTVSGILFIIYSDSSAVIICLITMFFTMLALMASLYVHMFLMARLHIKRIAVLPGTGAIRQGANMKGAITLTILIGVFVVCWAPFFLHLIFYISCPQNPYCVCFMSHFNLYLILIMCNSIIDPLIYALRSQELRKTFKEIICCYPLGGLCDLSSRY
Assay: Agonist activity at human recombinant MC4 receptor expressed in BHK570 cells assessed as induction of […] accumulation in presence of 0.1% human serum albumin
Answer as the number alone; pEC50 is minus log10 of concentration in mol/L.

Here is how some compounds turned out for pEC50.
CCCC[C@H](NC(=O)[C@H](CN)NC(=O)[C@H](Cc1cnc[nH]1)NC(=O)[C@H](CCC(N)=O)NC(=O)[C@H](CO)NC(=O)CNC(=O)COCCOCCNC(=O)CCCCCCCCCCCCCCCc1nnn[nH]1)C(=O)N[C@H]1CCC(=O)NCCCC[C@@H](C(N)=O)NC(=O)[C@H](Cc2c[nH]c3ccccc23)NC(=O)[C@H](CCCN=C(N)N)NC(=O)[C@@H](Cc2ccccc2)NC(=O)[C@@H]2C[C@@H](O)CN2C1=O
7.21
CCCCCCCCCCCCCCCC(=O)NS(=O)(=O)CCCC(=O)NCC(=O)N[C@@H](CO)C(=O)N[C@@H](CCC(N)=O)C(=O)N[C@@H](Cc1cnc[nH]1)C(=O)N[C@@H](CO)C(=O)N[C@@H](CCCC)C(=O)N[C@H]1CCC(=O)NCCCC[C@@H](C(N)=O)NC(=O)[C@H](Cc2c[nH]c3ccccc23)NC(=O)[C@H](CCCNC(=N)N)NC(=O)[C@@H](Cc2ccccc2)NC(=O)[C@@H]2C[C@@H](O)CN2C1=O
9.82

Now take the following compound into account.
Looking up CCCCCCCCCCCCCCCC(=O)NCC(=O)NCC(=O)NCC(=O)NCC(=O)NCC(=O)N[C@@H](CCCC)C(=O)N[C@H]1CCC(=O)NCCCC[C@@H](C(N)=O)NC(=O)[C@H](Cc2c[nH]c3ccccc23)NC(=O)[C@H](CCCNC(=N)N)NC(=O)[C@@H](Cc2ccccc2)NC(=O)[C@@H]2C[C@@H](O)CN2C1=O , I see its pEC50 listed as 9.00

* * *

Target: Melanocortin receptor 3 (Homo sapiens)
Sequence (P41968 whole entry): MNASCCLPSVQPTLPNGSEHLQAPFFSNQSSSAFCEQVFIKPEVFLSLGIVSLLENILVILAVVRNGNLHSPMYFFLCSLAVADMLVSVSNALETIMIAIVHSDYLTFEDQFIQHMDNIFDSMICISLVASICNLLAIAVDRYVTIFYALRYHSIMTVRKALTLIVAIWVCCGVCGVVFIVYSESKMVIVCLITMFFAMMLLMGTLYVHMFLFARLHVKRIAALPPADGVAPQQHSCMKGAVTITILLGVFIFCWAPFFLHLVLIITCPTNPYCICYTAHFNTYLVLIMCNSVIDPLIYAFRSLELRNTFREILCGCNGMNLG
Experiment: Displacement of [125I]-NAD-alpha-MSH from human recombinant MC3 receptor expressed in BHK570 cells after 1 hr in presence of ovalbumin
testReadout: Ki
Report field: quantity (unit follows the number).

CCCC[C@H](NC(=O)[C@H](CCC(=O)O)NC(=O)[C@H](CCC(=O)O)NC(=O)[C@H](CCC(=O)O)NC(=O)[C@H](CCC(=O)O)NC(=O)CNC(=O)COCCOCCNC(=O)CCCCCCCCCCCCCCCc1nnn[nH]1)C(=O)N[C@H]1CCC(=O)NCCCC[C@@H](C(N)=O)NC(=O)[C@H](Cc2c[nH]c3ccccc23)NC(=O)[C@H](CCCNC(=N)N)NC(=O)[C@@H](Cc2ccccc2)NC(=O)[C@@H]2C[C@@H](O)CN2C1=O
1600 nM

Looking up CCCC[C@H](NC(=O)[C@H](CO)NC(=O)[C@H](Cc1cnc[nH]1)NC(=O)[C@H](CCC(N)=O)NC(=O)[C@H](CO)NC(=O)CNC(=O)COCCOCCNC(=O)CCCCCCCCCCCCCCCc1nnn[nH]1)C(=O)N[C@H]1CCC(=O)NCCCC[C@@H](C(N)=O)NC(=O)[C@H](Cc2c[nH]c3ccccc23)NC(=O)[C@H](CCCNC(=N)N)NC(=O)[C@@H](Cc2ccccc2)NC(=O)[C@@H]2C[C@@H](O)CN2C1=O , I see its Ki listed as 67 nM

Looking up CCCC[C@H](NC(=O)[C@H](CCCNC(=N)N)NC(=O)[C@H](Cc1cnc[nH]1)NC(=O)[C@H](CCC(N)=O)NC(=O)[C@H](CO)NC(=O)CNC(=O)COCCOCCNC(=O)CCCCCCCCCCCCCCCc1nnn[nH]1)C(=O)N[C@H]1CCC(=O)NCCCC[C@@H](C(N)=O)NC(=O)[C@H](Cc2c[nH]c3ccccc23)NC(=O)[C@H](CCCNC(=N)N)NC(=O)[C@@H](Cc2ccccc2)NC(=O)[C@@H]2C[C@@H](O)CN2C1=O , I see its Ki listed as 27 nM
